Recorded measurements of IC50, one per entry
Target: Avi-KRAS G12V (1-169) GppNHp/RAF1 RBD-3xFLAG (52-151) (Homo sapiens, UniProt P01116, G12V)
Construct: Avi-KRAS G12V (1-169)
Sequence (P01116 1-169 isoform P01116-2 G12V): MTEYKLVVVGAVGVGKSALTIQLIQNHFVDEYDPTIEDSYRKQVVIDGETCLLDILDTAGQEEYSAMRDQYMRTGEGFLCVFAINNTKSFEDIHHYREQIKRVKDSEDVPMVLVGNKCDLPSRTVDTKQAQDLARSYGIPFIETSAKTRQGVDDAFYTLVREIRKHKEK
Experiment: Raf1-KRAS G12V-GppNHP disruption HTRF assay (Biological Example 1)
Type: binding
Settings: KRAS G12V-GppNHp/RAF1 RBD HTRF

Some solved cases for reference:
- compound: "N#Cc1c(N)sc2c(F)ccc(-c3c(C(F)(F)F)cc4c(N5CC6C(=O)NC(=O)C6C5)nc(OC[C@@]56CCCN5C[C@H](F)C6)nc4c3F)c12 (some centres unmarked)"
  study_system: "Avi-KRAS G12V (1-169) GppNHp/RAF1 RBD-3xFLAG (52-151) (Homo sapiens, UniProt P01116, G12V)"
  measurement_label: "IC50"
  result: "1 to 10 µM"
- compound: "CCN(c1nc(OC[C@@]23CCCN2C[C@H](F)C3)nc2c(F)c(-c3ccc(F)c4sc(N)c(C#N)c34)c(C(F)(F)F)cc12)[C@@H]1C[C@H](C)N(C(C)=O)C1 (atropisomer, axis not shown)"
  study_system: "Avi-KRAS G12V (1-169) GppNHp/RAF1 RBD-3xFLAG (52-151) (Homo sapiens, UniProt P01116, G12V)"
  measurement_label: "IC50"
  result: "0.1 to 1 µM"
- compound: "CCN(c1nc(OC[C@@]23CCCN2C[C@H](F)C3)nc2c(F)c(-c3ccc(F)c4sc(N)c(C#N)c34)c(C(F)(F)F)cc12)[C@H]1CCS(=O)(=O)C1 [Compound 350]"
  study_system: "Avi-KRAS G12V (1-169) GppNHp/RAF1 RBD-3xFLAG (52-151) (Homo sapiens, UniProt P01116, G12V)"
  measurement_label: "IC50"
  result: "0.1 to 1 µM"
- compound: "N#Cc1c(N)sc2c(F)ccc(-c3c(C(F)(F)F)cc4c(N5C[C@H]6C[C@@H]5CS6(=O)=O)nc(OC[C@@]56CCCN5C[C@H](F)C6)nc4c3F)c12"
  study_system: "Avi-KRAS G12V (1-169) GppNHp/RAF1 RBD-3xFLAG (52-151) (Homo sapiens, UniProt P01116, G12V)"
  measurement_label: "IC50"
  result: "1 to 10 µM"

Turning to the following compound.
Prompt: For the compound N#Cc1c(N)sc2c(F)ccc(-c3c(C(F)(F)F)cc4c(N5CCCC[C@H](O)C5)nc(OC[C@@]56CCCN5C[C@H](F)C6)nc4c3F)c12 , what IC50 is on record?
Response: 0.1 to 1 µM

Source: patent US20260042764A1
